Test system: hGIPR (Homo sapiens)
Sequence (P48546 22-466): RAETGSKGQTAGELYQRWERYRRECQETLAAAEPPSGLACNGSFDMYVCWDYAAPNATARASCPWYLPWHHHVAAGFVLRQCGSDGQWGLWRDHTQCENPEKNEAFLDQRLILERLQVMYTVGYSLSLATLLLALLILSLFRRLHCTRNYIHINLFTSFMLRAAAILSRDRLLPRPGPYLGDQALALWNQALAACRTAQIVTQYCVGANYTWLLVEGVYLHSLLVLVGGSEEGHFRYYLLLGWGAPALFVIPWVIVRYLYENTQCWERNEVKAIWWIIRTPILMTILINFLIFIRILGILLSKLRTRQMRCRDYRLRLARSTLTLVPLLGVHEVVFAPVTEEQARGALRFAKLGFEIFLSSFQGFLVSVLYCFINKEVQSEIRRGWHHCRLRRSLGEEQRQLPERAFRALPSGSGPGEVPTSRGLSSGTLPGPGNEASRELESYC
Assay remarks: Functional cAMP activity in the presence of 1% HSA
Format: cell-based
Conditions used: read-out: cAMP Rel EC50, hGIPR
Starred links: 1 amine or outer side, 2 acyl side, 3 side chain; linkers in the order of their positions; H or OH if unused. Non-standard residues stand in square brackets, D forms with d. Groups on a side chain read outwards from the residue. No end group written: not given here. *: point of attachment. C18 diacid = O=C(O)CCCCCCCCCCCCCCCCC(=O)*; αMePhe(2-F) = C[C@](N)(Cc1ccccc1F)C(=O)O; γGlu = O=C(O)[C@H](CCC(=O)[*:2])N[*:1]; αMe4Pal = C[C@](N)(Cc1ccncc1)C(=O)O; αMeY = C[C@](N)(Cc1ccc(O)cc1)C(=O)O; αMeF = C[C@](N)(Cc1ccccc1)C(=O)O; 4Pal = N[C@@H](Cc1ccncc1)C(=O)O; αMeL = CC(C)C[C@](C)(N)C(=O)O; αMeS = C[C@](N)(CO)C(=O)O; Orn = NCCC[C@H](N)C(=O)O; AEEA = NCCOCCOCC(=O)O; Aib = CC(C)(N)C(=O)O
Observed property: EC50 (nM)
Dear colleague, please return just the value in nM, with no unit written.

>  <Substance>
H-Y[Aib]QGTFTSD[4Pal]SQ[αMeL]LDKK([AEEA-γGlu-C18 diacid])AQ[αMe4Pal]AFIEYLIEGGPSSGAPPPSGS-NH2 [Example 826]

>  <Observed property>
EC50

>  <Reported>
81.6

$$$$
>  <Substance>
H-Y[Aib]QGTFTSD[4Pal]S[Orn][αMeL]LDKK([AEEA-γGlu-C18 diacid])AQ[αMe4Pal]AFIE[αMe4Pal]LIEGGPSSGAPPPSGSEE-NH2 [Example 955]

>  <Observed property>
EC50

>  <Reported>
42.3

$$$$
>  <Substance>
H-Y[Aib]QGT[αMePhe(2-F)]TSD[4Pal][αMeS]I[αMeL]LD[Orn]K([AEEA-γGlu-C18 diacid])AQ[αMe4Pal]EFI[dE][αMeY]LIEGGPPS[Aib]EPPPSGSE-NH2 [Example 1200]

>  <Observed property>
EC50

>  <Reported>
0.896

$$$$
>  <Substance>
Y[Aib]QGTFTSD[4Pal]SQ[αMeL]LDKK([dE-γGlu-C18 diacid])AQ[αMe4Pal]AFIEYLIAGGPSSGAPPPSGEEE-NH2 [Example 1088]

>  <Observed property>
EC50

>  <Reported>
15.6

$$$$
>  <Substance>
H-Y[Aib]QGTFTSDFSK[αMeL]LDKK([AEEA-γGlu-C18 diacid])AQ[Aib]AFIE[αMe4Pal]LIE[Aib]GPSSGAPPPSGS-NH2 [Example 912]

>  <Observed property>
EC50

>  <Reported>
6.15

$$$$
>  <Substance>
H-Y[Aib]QGT[αMeF]TSD[4Pal][αMeS]I[αMeL]LD[Orn]K([AEEA-γGlu-C18 diacid])AQ[αMe4Pal]EFI[dE][αMeY]LIEGGPSSGEPPPSGSE-NH2 [Example 1167]

>  <Observed property>
EC50

>  <Reported>
1.22

$$$$
>  <Substance>
Y[Aib]QGTFTSDFS[Orn][αMeL]LDKK([AEEA-AEEA-γGlu-C18 diacid])AQ[Aib]AFIEYLLE[dA]GPSSG[4Pal]PPPSGS-NH2 [Example 254]

>  <Observed property>
EC50

>  <Reported>
21.4

$$$$
>  <Substance>
H-Y[Aib]QGTFTSD[4Pal]SK[αMeL]LDKK([AEEA-γGlu-C18 diacid])AQ[Aib]AFIEYLIE[Aib]GPSSGAPPPSGSEE-NH2 [Example 902]

>  <Observed property>
EC50

>  <Reported>
28.5

$$$$
>  <Substance>
Y[Aib]QGTFTSD[4Pal][αMeS]Q[αMeL]LD[Orn]K([dE-γGlu-C18 diacid])AQ[αMe4Pal]QFIQ[αMeY]LIEGGPSSGEPPPSGGGE-NH2 [Example 1188]

>  <Observed property>
EC50

>  <Reported>
7.02

$$$$
>  <Substance>
H-Y[Aib]QGTFTSD[4Pal]S[Orn][αMeL]LDKK([AEEA-AEEA-γGlu-C18 diacid])AQ[αMe4Pal]AFIEYLIE[Aib]GPSSGAPPPSGS-NH2 [Example 814]

>  <Observed property>
EC50

>  <Reported>
27.8

$$$$

Task: Kindly indicate its recorded EC50. Item: H-Y[Aib]QGTFTSD[4Pal]SK[αMeL]LDKK([γGlu-γGlu-C18 diacid])AQ[Aib]AFIEYLIE[Aib]GPSSGAPPPSGSEEE-NH2 [Example 906]
Output: 15.4
